# ASSAY TEXT: yeast display, Sf9 membrane polyspecificity reagent, FACS + sequencing; frameworks hold sequencing errors
MEASUREMENT KIND: polyreactivity (PSR sort gate)

Before answering, review these 5 worked examples.
Q: State its polyreactivity (PSR sort gate) for this sequence: QVHLVESGGGLVQAGGSLRLSCAASGSIFRYYAMGCYRQAPGKERELVAGITWSSGSTYYADYVKGRFTISRDKAKNTVYFQMNSLKPEDTAVSYCIADPANPFVTEFEYWGQGNQVTVSS
A: high polyreactivity

Q: State its polyreactivity (PSR sort gate) for this sequence: QVQLVESGGGLVQAGGSLRLSCAASGFTFKWYTMGWYRQAPGKERELVAGISRRGGSTYYADSVKGRFTISRDNAKNTVYLQMNSLKPEDTAVYYCAARYTWRRAGYYYWGQGTQVTVSS
A: high polyreactivity

Q: State its polyreactivity (PSR sort gate) for this sequence: QVQLVESGGGLVQSGGSLRLSCAASGRILSYNTMGSYRQAPGKERELVAAISRGGSTYYADSVKGRFTISRDNAKNTVYLQMNSLKPEDTAVYYCNALLPPGSRKYNYWGQGTQVTVSS
A: high polyreactivity

Q: State its polyreactivity (PSR sort gate) for this sequence: QVQLVESGGGLVQAGGSLRLSCAASGSIFWRNAMGWYRQAPGKERELVAAITKTGASTYYADSVKGRFTISRDNAKNTVYLQMNSLKPEDTAVYYCAKDTRGRYAGSYRYDYCGQGTQVTVSS
A: low polyreactivity

Q: State its polyreactivity (PSR sort gate) for this sequence: QVQLVESGGGLVQAGGSLRLSCAASGRIFTGYALGWYRQAPGKERELVAAISRGGSTNYADSVKGRFTISRDNAKNTVYLQMNSLKPEDTAVYYCAAGVHWDRGDYWGQGTQVTVSS
A: low polyreactivity

Further cases:
Q: State its polyreactivity (PSR sort gate) for this sequence: QVQHEDSGGGLVQAGGSLRLSCAASGRIFLYYAMGWYRQAPGKERELVAAISSGTSTYYADSVKGRFTISRDNAKNTVYLQMNSLKPEDTAVYYCAAYYYSYPTNGGYGYWGQGTQVTVSS
A: low polyreactivity

Q: State its polyreactivity (PSR sort gate) for this sequence: QVQLVESGGGLVQAGGSLRLSCAASGFIFVGNAMGWYRQAPGKERELVAAISRRGSRTFYADSVKGRFTISRDNAKNTVYLQMNSLKPEDTAVYYCATDKWYGYYYWGQGTQVTVSS
A: low polyreactivity

Q: State its polyreactivity (PSR sort gate) for this sequence: QVQLVESGGGLVQAGGSLRLSCAASGYIFFFYAMGWYRQAPGKERELVASITYRGGSTYYADSVKGRFTISRDNAKNTVYLQMNSLKPEDTAVYYCNVDGGGPLGPQGFPFDYWGQGTQVTVSS
A: low polyreactivity

====

# ASSAY TEXT: yeast display, Sf9 membrane polyspecificity reagent, FACS + sequencing; frameworks hold sequencing errors
MEASUREMENT KIND: polyreactivity (PSR sort gate)

Before answering, review these 5 worked examples.
Q: State its polyreactivity (PSR sort gate) for this sequence: QGHLVESGGGLFQAGGSLRLSCAASGSILSYYALGRYRQAPGKEMEMVAVINSGGRTNYADAVKGRFTISRDNAKYTVYLQMNSLKTEDTAVYDCAAQGYFVDRAGRYYRVDYRGQGTQVTVSS
A: high polyreactivity

Q: State its polyreactivity (PSR sort gate) for this sequence: QVQLVESGGGLVQAGGILRLSCAASGRTFNQNAMGWYRQAPGKERELVAAITSRGGSTFYAASVKGRFTISRDNAKNTVYLQMNSLKPEDTAVDYCAAPRKQLEVGPGYYWGQGTQVTVSS
A: high polyreactivity

Q: State its polyreactivity (PSR sort gate) for this sequence: QVHLVESGGGLVQAGGSLRLSCAASGFIFRIYAMGWYRQAPGKERELVAAINSSVSTSYADSVKGRFTISRDNAKNTVYLQMNSLKPEDTAVYYCAASRWPYPSYLYIVDSWGQGTQVTVSS
A: low polyreactivity

Q: State its polyreactivity (PSR sort gate) for this sequence: QVQLVESGGGLVQAGGSLRLSCAASGRTYSQNAMGWYRQSPGKERELVAAIRRGGSTNYADSVKGRFTISRDNAKNTVYLQMNSLKPEDSAVYDCAADLRRNGWGFDYWGLGTQVTVSS
A: high polyreactivity

Q: State its polyreactivity (PSR sort gate) for this sequence: QVQLVESGGGLVQAGGSLRLSCAASGSIFGDNAMGWYIQAPGKERELVAAITSSGVRTYYADSVKGRFTISRDNAKNTVYLQMNSLKPEDTAVYYCNADRFRRIRWYAITRSDYWGQGTQVTVSS
A: high polyreactivity

Further cases:
Q: State its polyreactivity (PSR sort gate) for this sequence: QVQLVESRGRLVQAGGTLRLSCAASGNITSVYAMGWYRQAPGNERELVAAISGSGGSTYYADSVKGRFTISRDNAMNTVYLQMNSLKPEDTAVYYCAKGFQYQGNSYGYWGQGSQVTVSS
A: low polyreactivity

Q: State its polyreactivity (PSR sort gate) for this sequence: QVQLVESGGGLVQAGGSLRLSCAASGSTYTRYAMGLYRQAPGKEMELVATINVSGDRTYYADSVKGRFTISRDNAKNTVYLQMNSLKPEDTAVYYCNKYRYQWPYRRFDYWGQGTQVTVSS
A: high polyreactivity

Q: State its polyreactivity (PSR sort gate) for this sequence: QVHLVDSGGGLVQAGGSLRLSCAASGSTSGTNAMGWYRQAPGKERELVAGISYRGGSTYYADSVKGRFTISRDNAKNTVYLQMNSLKPEDTAVYYCAARKLKYRREYWGQGTQVTVSS
A: high polyreactivity

Q: State its polyreactivity (PSR sort gate) for this sequence: QVQLVESGGGLVQAGGSLRLSCAASGSTFRYSAMGWDRQAPGKEREFVAAISWSGSSTYYADSVKGRFTISRDNAKNTVYLQMNILKPEDTAGYYCAARYRYRSSSYDYWGQGTQVTVSS
A: high polyreactivity

Q: State its polyreactivity (PSR sort gate) for this sequence: QVQLVESGGGLVQAGGSLRLSCAASGFSFEGYAMGWYRQAPGKERELVAAISSNGGRTYYADSVKGRFTISRDNAKNTVYVLMNSLKPEDTAVYYCNARRAYSGPDYDYYHGRRYDYWGQGTQVSVSS
A: low polyreactivity

Q: State its polyreactivity (PSR sort gate) for this sequence: QVQLVESGGGLVQAGGSLRLSCAASGFIFGGNAMGWYRQAPGKERELVAAVSWIAGSTHYADSVKGRFTISRDNAKNTVYLQMNSLKPEDTAVYYCAADHEGSLSRGFTETDYDYWGQGTQVTVSS
A: low polyreactivity

====

# ASSAY TEXT: yeast display, Sf9 membrane polyspecificity reagent, FACS + sequencing; frameworks hold sequencing errors
MEASUREMENT KIND: polyreactivity (PSR sort gate)

Before answering, review these 4 worked examples.
Q: State its polyreactivity (PSR sort gate) for this sequence: QVQLVESGGGLVQAGGSLRLSCAASGRTFGGNAMGWYRQAPGKERELVAAISLSGGTTYYADSVKGRFTISRDNAKNTVYLQMNSLKPEDTAVYYCAADTAGYYDEDKDGDYWGQGTQVTVSS
A: low polyreactivity

Q: State its polyreactivity (PSR sort gate) for this sequence: QVQLVESGGGLVQAGGSLRLSCAASGFIFSSYAKGWYRQAPGKETELVAAITSGGSTNYADSVKGRFTISRDNAKNTVYLQMNSLYPEDTAVYYCATVPGGSWFFHWWSTGGDDEYWGQGTQVTVSS
A: low polyreactivity

Q: State its polyreactivity (PSR sort gate) for this sequence: QVQLVESGGGLVQAGGSLRLSCAASGRIFKWYAMGWYRQAPGKERELVAAITWRGGSTNYADSVKGRFTISRDNAKNTVYLQMNSLKPEDTAVYYCAVGTVFLTYRGYEYWGQGTQVTVSS
A: high polyreactivity

Q: State its polyreactivity (PSR sort gate) for this sequence: QVQLVESGGGLVQAGGSLRLSCAASGSTFKWYAMGWYRQAPGKERELVAAINWSSGRTYYADSVKGRFTISRDNAKNTVYLQMNSLKPEDTAVYYCAAEAGYFSWRTMDYWGQGTQVTVSS
A: high polyreactivity

Further cases:
Q: State its polyreactivity (PSR sort gate) for this sequence: QVQIVESGGGLVQAGGSLRLSCAASGRILWFYAMGWYRHAPGKERELVAAITDSGGSTYYADSVKGRFTISRDNAKNPVYLQMNSLKPEDTAVYYCAADGDRYISGGGLAHYDYWGQGTQVNVSS
A: low polyreactivity

====

# ASSAY TEXT: yeast display, Sf9 membrane polyspecificity reagent, FACS + sequencing; frameworks hold sequencing errors
MEASUREMENT KIND: polyreactivity (PSR sort gate)

Before answering, review these 6 worked examples.
Q: State its polyreactivity (PSR sort gate) for this sequence: QVQLVESGGGLVQAGGSLRLSCAASGFTFRAYTMGWYRQAPGKERELVAAITYSGGRTYYADSVKGRFTISRDNAKNTVYLQMNSLKPEDTAVYYCAKRGWALSEYYYWGQGTQVTVSS
A: high polyreactivity

Q: State its polyreactivity (PSR sort gate) for this sequence: QVQLVESGAGLFQAGGSLRLSCAPSGSIFAPNDMGWYRQAPGKERELVAAITSSGGRTYYADSVKGRFTISRDNAKNTVYLQMNSLKPEDTAVYYCAADHGYQYGYWGQGTHVTVSS
A: low polyreactivity

Q: State its polyreactivity (PSR sort gate) for this sequence: QVQLVESGGGLVQAGGSLRLSCAASGSTFVTYAMGWYRQAPGKERELVAAIDSGGNTNYADSVKGRFTISRDNAKNTVYLQMNSLKPEDTAVYYCAVRPYELNRLDDQPGGDDYWGQGTQVTVSS
A: low polyreactivity

Q: State its polyreactivity (PSR sort gate) for this sequence: QVQLVESGRGLFQAGGSLRLSCAASGSTFTVNTMGWYRQAPGKERELVDAITKNGANTYYADSVKGRFTISRDNAKNTVYLQMNILKPEDTAVYYCAALYVYGKSYSRWLVELDYWGQGTQVTVSS
A: low polyreactivity

Q: State its polyreactivity (PSR sort gate) for this sequence: QVQLVESGGGLVQAGGSLRVSSAASGRIFSIYAMGWYRQAPGKERELVAAISFRGTSTYADSVKGRFTISRDNAKNTVYLQMNSLKPEDTAVYFCAVSGFDVLWPSLGGELDYWGQGTQVTVSS
A: low polyreactivity

Q: State its polyreactivity (PSR sort gate) for this sequence: QVQLVESGGGLVQAGGSLRLSCAASGSIFDYYAMGWYRPAPGKERELVAAISDSGGSTYYADSVKGRFTISRDNAKNTVYLQMNSLKPEDTAVYYCNAVPRYQATWQESYDYDYWGQGTQVTVSS
A: high polyreactivity

Further cases:
Q: State its polyreactivity (PSR sort gate) for this sequence: QVQLVESGGGLVQAGGSLRLSCAASGLTFSYYAMGWYRQAPGKERELVAAITRSGTRTYYADSVKGRFTISRDNAKNTVYLQMNSLKPVDTAVYYCARYLRGDFQQGEHWGQGTQVTVSS
A: high polyreactivity

Q: State its polyreactivity (PSR sort gate) for this sequence: QVQLVESGGGLVQAGGSLRLSCAASGRTFILYAMGWYRQAPGKERELVAAITRRGGRTYYADSVKGRFTISRDNAKNTVYLQMNSLKPEDTAVYYCAADQYYYTQPSDMDYWGQGTQVTVSS
A: high polyreactivity
